test: A549 lung cancer cell viability effects, profiling panel, resazurin fluorescence, 24 h, PK04 Diversity Set (AID 1171); settings: higher = more signal, called active from +8 up or from −8 down; further: test concentration not given here
# z-score >= -0.3 gives True, anything below gives False

hey, is z-score for this one >= -0.3? C=CCC(OC(C)=O)[C@@H]1[C@@H](N(Cc2ccc(-c3cccc(C(F)(F)F)c3)o2)C(=O)c2cccc3ccccc23)c2cc(OCCCO)ccc2N1C(=O)c1ccc2ccccc2n1 (some centres not stated)
False

hey, is z-score for this one >= -0.3? "CC(C)C[C@@H]1NC(=O)[C@H]2C[C@@H](C(=O)NCCCCCCNC(=O)CS)[C@@H](c3ccc(O)cc3)N2C1=O"
True

hey, is z-score for this one >= -0.3? "C=CC[C@]1(C(=O)OC)N=C(c2ccc(OCCCO)cc2)O[C@H]1c1ccccc1N=[N+]=[N-]"
False

hey, is z-score for this one >= -0.3? "CCCCCCc1nc(-c2ccc(OC)nc2)cc2c1[Si](C(C)C)(C(C)C)OC2"
True

hey, is z-score for this one >= -0.3? "CC(C)[Si](C#CCCCC#N)(O[C@H](c1ccccc1)c1cn([C@H](C)c2ccccc2)nn1)C(C)C"
True

hey, is z-score for this one >= -0.3? "COC(=O)[C@@]1(Cc2ccccc2)[C@H]2c3cc(C(=O)N4CCCC4)n(Cc4ccc(C(F)(F)F)nc4)c3C[C@H]2CN1C(=O)c1ccccc1"
True

hey, is z-score for this one >= -0.3? "COCCOC(=O)N1C(=O)[C@@]2(c3cc(C#CC4(O)CCCCCC4)ccc31)[C@H](C(=O)N1CCc3cc(OC)c(OC)cc3C1)[C@H]1C(=O)O[C@H](c3ccccc3)[C@H](c3ccccc3)N1[C@@H]2c1ccc(O)cc1"
False

hey, is z-score for this one >= -0.3? CN1C=C(C(=O)OCCS(C)(=O)=O)C(C(=O)OCCS(C)(=O)=O)=CC(CCCO)=CC1c1ccc(CN2CCCC2)cc1 (configuration not stated)
True

hey, is z-score for this one >= -0.3? "COCCOC(=O)N1C(=O)[C@@]2(c3cc(C#CCCO)ccc31)[C@H](c1ccccc1OCCO)N1[C@H](c3ccccc3)[C@H](c3ccccc3)OC(=O)[C@H]1[C@@H]2C(=O)N1CCc2cc(OC)c(OC)cc2C1"
True

hey, is z-score for this one >= -0.3? "O=C(NCC(F)(F)F)[C@@H]1c2ccccc2C(=O)N(CC23CC4CC(CC(C4)C2)C3)[C@H]1c1ccc(CO)cc1"
True

hey, is z-score for this one >= -0.3? C=CCC(OC(C)=O)[C@@H]1[C@@H](N(Cc2ccc(-c3ccccc3)cc2)C(=O)c2cccc3ccccc23)c2cc(OCCCO)ccc2N1C(=O)c1ccc2ccccc2c1 (some centres not stated)
False

hey, is z-score for this one >= -0.3? "C#CCN=C(N)N"
True

hey, is z-score for this one >= -0.3? "CCOC(=O)C1=C(C(=O)OCC)N(S(=O)(=O)CC[Si](C)(C)C)[C@H](c2ccccc2)CC1"
True

hey, is z-score for this one >= -0.3? "CCCC[C@H]1OB(O)C[C@H]2C1=C(COC)C[C@H]1C(=O)C=CC(=O)[C@H]12"
False

hey, is z-score for this one >= -0.3? CC(=O)c1ccc(C(O)C2C=CC3C(=O)N(C)C(=O)C3N2NC(=O)OC(C)(C)C)cc1 (configuration not stated)
False

hey, is z-score for this one >= -0.3? "O=C1O[C@H](c2ccccc2)[C@H](c2ccccc2)N2[C@H]1[C@@H](C(=O)NC[C@H](O)c1ccccc1)[C@]1(C(=O)Nc3ccc(C#CCCO)cc31)[C@H]2c1ccccc1OCCO"
True

hey, is z-score for this one >= -0.3? "O=C1N(Cc2ccccc2)c2ccccc2[C@H]2OC(c3ccc(OCCCO)cc3)=N[C@@]12Cc1ccccc1"
False

hey, is z-score for this one >= -0.3? CC(C)C[C@H]1NC(=O)[C@@]23C(=O)N[C@@H](Cc4ccccc4)C2[C@H](C)[C@@]2(C)O[C@H]2C3/C=C/C/C=C\CNC(=O)[C@@H]2CCCN2C1=O (some centres not stated)
False

hey, is z-score for this one >= -0.3? "C=C(C(=O)CC[C@@H](OC(C)=O)c1cccc(OCCO)c1)C(C)C"
False

hey, is z-score for this one >= -0.3? "COC(=O)[C@]1(CO)N=C(c2ccc(OCCCO)cc2)O[C@@H]1c1ccccc1CN=[N+]=[N-]"
False

hey, is z-score for this one >= -0.3? "CCc1cccc(NC(=O)O[C@H]2[C@H](OC(=O)Nc3ccc4c(c3)OCO4)[C@H](OC(=O)Nc3ccc4c(c3)OCO4)[C@@H](OC)O[C@@H]2CO)c1"
False

hey, is z-score for this one >= -0.3? "C=CC[C@]1(C(=O)N(C)C)COC(c2ccc(OCCCO)cc2)=N1"
False

hey, is z-score for this one >= -0.3? "CO[C@H]1O[C@H](CO)[C@@H](OC(=O)Nc2ccccc2)[C@@H]2OC(=O)[C@H](Cc3ccccc3)C/C=C/C[C@@H](Cc3ccccc3)C(=O)O[C@@H]12"
False

hey, is z-score for this one >= -0.3? "CO[C@H]1O[C@H](CO)[C@@H](OC(=O)Nc2ccc(C(F)(F)F)cc2)[C@H](OC(=O)Nc2ccccc2-c2ccccc2)[C@H]1OC(=O)Nc1ccccc1-c1ccccc1"
False

hey, is z-score for this one >= -0.3? "C=C(CC1([C@@H](NP(=O)(c2ccccc2)c2ccccc2)[C@H]2C[C@@H]2CCN(C(=O)OCC)S(=O)(=O)c2ccc(C)cc2)CC1)c1ccccc1"
True

hey, is z-score for this one >= -0.3? COc1cc(OC)c(C(O)C2C=CC3C(=O)N(c4ccccc4)C(=O)C3N2Nc2ccccc2F)cc1Br (configuration not stated)
False

hey, is z-score for this one >= -0.3? "COCCOC(=O)N1C(=O)[C@@]2(c3cc(C#CC4=CCCCC4)ccc31)[C@H](c1ccccc1OCCO)N1[C@H](c3ccccc3)[C@H](c3ccccc3)OC(=O)[C@H]1[C@@H]2C(N)=O"
False

----------
Assign composite z-score to each entry below.
tested on: wheat germ agglutinin (Triticum aestivum), Alexa647-labelled; assay: wheat germ agglutinin binders on compound microarrays, profiling panel, artefact control for SMM control-protein annotation, biochemical, small-molecule microarray, 635/667 nm fluorescence (AID 1140); conditions: WGA-A647 binding, 635 nm fluorescence, higher = more signal;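 further: score merges 667 nm feature emission with signal to noise over triplicate slides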
Please respond with just the number, no unit label.

Measured composite z-score, "CN(C)CCCCNC(=O)[C@H]1C[C@H]2C(=O)NCC(=O)N2[C@H]1c1cccc(OCCO)c1" : 0.169

Measured composite z-score, C=CCC(OC(C)=O)[C@@H]1[C@@H](N(Cc2cccc3ccccc23)C(=O)c2ccc(-c3ccccc3)cc2)c2cc(OCCCO)ccc2N1C(=O)c1ccc2ccccc2n1 (some centres undefined) : 0.922

Measured composite z-score, "CCCCC(=C=CC[C@@H](O)c1cccc(OCCO)c1)C[C@@H](O)COCc1ccccc1" : 0.498

Measured composite z-score, "CCCCC(=C=CC[C@@H](O)c1cccc(OCCO)c1)CCO" : 0.771

Measured composite z-score, "C=CC[C@]1(C(=O)NCCCOC)N=C(c2ccc(OCCCO)cc2)O[C@H]1c1ccccc1" : 0.566

Measured composite z-score, "CO[C@H]1O[C@H](CO)[C@@H](OC(=O)Nc2ccc(C(F)(F)F)cc2)[C@H](OC(=O)Nc2ccccc2-c2ccccc2)[C@@H]1OC(=O)Nc1ccccc1-c1ccccc1" : 1.04

Measured composite z-score, "[N-]=[N+]=NCc1ccccc1C[C@]1(C(=O)N2CCCCC2)N=C(c2ccc(OCCCO)cc2)O[C@H]1c1ccccc1" : 0.762

Measured composite z-score, CC(=O)c1ccc(C(O)C2C=CC3C(=O)NC(=O)C3N2Nc2ccc(Cl)cc2Cl)cc1 (centres undefined) : 0.564

Measured composite z-score, "COC(=O)[C@@]1(Cc2ccccc2)[C@H]2c3cc(C(=O)N4CCCC4)n(Cc4ccc(C(F)(F)F)nc4)c3C[C@H]2CN1C(=O)c1ccccc1" : 1.05

Measured composite z-score, "COC(=O)[C@@]1(CCC(=O)OC(C)(C)C)N=C(c2ccc(OCCCO)cc2)O[C@H]1c1ccccc1CN=[N+]=[N-]" : 0.249

Measured composite z-score, "COCCOC(=O)N1C(=O)[C@@]2(c3cc(C#CC4=CCCCC4)ccc31)[C@H](C(=O)N1CCN(c3ncccn3)CC1)[C@H]1C(=O)O[C@H](c3ccccc3)[C@H](c3ccccc3)N1[C@@H]2c1ccccc1OCCO" : 0.792

Measured composite z-score, "COC(=O)[C@@]1(CCS(=O)(=O)c2ccccc2)N=C(c2ccc(OCCCO)cc2)O[C@H]1c1ccccc1N=[N+]=[N-]" : 0.647

Measured composite z-score, "COCCOC(=O)N1C(=O)[C@@]2(c3cc(C#CC4=CCCCC4)ccc31)[C@H](C(=O)N1CCc3cc(OC)c(OC)cc3C1)[C@H]1C(=O)O[C@H](c3ccccc3)[C@H](c3ccccc3)N1[C@@H]2c1ccc(O)cc1" : 0.854

Measured composite z-score, COc1cc2c(cc1O)C(c1ccc(CN3CCCC3)cc1)N(Cc1cccc(OC(F)(F)F)c1)CC2 (centres undefined) : 0.625
